Measure Name: melting point

Compound	melting point
O=C(NO)[C@H]1CN(S(=O)(=O)CCc2ccccn2)CCN1S(=O)(=O)c1ccc(-c2ccccc2)s1 [Example 106]	170 to 174 °C
O=C(NO)[C@H]1CN(C(=O)Nc2ccccc2)CCN1S(=O)(=O)c1ccc(-c2ccc(F)cc2)s1 [Example 108]	187 to 188 °C
O=C(NO)[C@H]1CN(S(=O)(=O)c2ccc(-c3ccon3)s2)CCN1S(=O)(=O)c1ccc(-c2ccccc2)s1 [Example 139]	204 °C
CS(=O)(=O)N1CCN(S(=O)(=O)/C=C/c2ccccc2)[C@@H](C(=O)NO)C1 [Example 189]	94 to 99 °C

## Input Bench note: what melting point did CS(=O)(=O)NCCS(=O)(=O)N1CCN(S(=O)(=O)c2ccc(-c3ccc(C(F)(F)F)cc3)s2)[C@@H](C(=O)NO)C1 [Example 181] show?
## Output 105 to 108 °C

## Input Bench note: what melting point did CN(C)S(=O)(=O)N1CCN(S(=O)(=O)c2ccc(-c3ccc(CC#N)cc3)s2)[C@@H](C(=O)NO)C1 [Example 173] show?
## Output 170 to 172 °C

## Input Bench note: what melting point did O=C(NO)[C@H]1CN(C(=O)NC2CCCCC2)CCN1S(=O)(=O)c1ccc(-c2ccc(F)cc2)s1 [Example 109] show?
## Output 111 to 123 °C

## Input Bench note: what melting point did CN(C)S(=O)(=O)N1CCN(S(=O)(=O)c2ccc(Oc3ccccc3)cc2)[C@@H](C(=O)NO)C1 [Example 176] show?
## Output 153 to 155 °C

## Input Bench note: what melting point did CCN(C)S(=O)(=O)[C@@]1(C(=O)NO)CNCCN1S(=O)(=O)c1ccc(-c2ccc(Cl)cc2)s1 [Example 162] show?
## Output 170 to 172 °C

## Input Bench note: what melting point did CS(=O)(=O)N1CCN(S(=O)(=O)c2ccc(-c3cccs3)cc2)[C@@H](C(=O)NOC2CCCCO2)C1 (some centres unmarked) [Example 61] show?
## Output 194 to 195 °C

## Input Bench note: what melting point did CS(=O)(=O)NCCS(=O)(=O)N1CCN(S(=O)(=O)c2ccc(-c3ccc(Cl)cc3)s2)[C@@H](C(=O)NO)C1 [Example 182] show?
## Output 118 to 122 °C
